Source: patent US4971983A

System: MCAO rats
Assay: Combined Middle Cerebral and Ipsilateral Common Carotid Occlusion in the Rat (MCAO): collateral zone and hemispheric infarct
Assay type: in vivo, Adult male Fisher (F-344) rats
Conditions: 10 mg/kg IP, 30 min and 24 h after occlusion, historical controls, read-out: Hemispheric Infarct (% of Control)
Below is a list of entries, each paired with its recorded response vs control in vivo at 10 mg/kg value.
Lab book: enter the figure in %, no units written.

Recorded response vs control in vivo at 10 mg/kg, per entry:
compound: COc1cccc2sc(N)nc12 [Compound 13, 2-amino-4-methoxybenzothiazole]
response vs control in vivo at 10 mg/kg [%]: 121

compound: Nc1nc2ccc([N+](=O)[O-])cc2s1 [Compound 8, 2-amino-6-nitrobenzothiazole]
response vs control in vivo at 10 mg/kg [%]: 93

compound: Cc1cccc2sc(N)nc12 [Compound 14, 2-amino-4-methylbenzothiazole]
response vs control in vivo at 10 mg/kg [%]: 72

query: Determine its reported response vs control in vivo at 10 mg/kg: Cc1cc(C)c2nc(N)sc2c1 [Compound 12, 2-amino-4,6-dimethylbenzothiazole]
result: 79

query: Determine its reported response vs control in vivo at 10 mg/kg: Nc1nc2cc(C(F)(F)F)ccc2s1 [Compound 19, 2-amino-5-trifluoromethylbenzothiazole]
result: 63

query: Determine its reported response vs control in vivo at 10 mg/kg: CN1CCCC1CCNc1nc2ccccc2s1 (centres unmarked) [Compound 23]
result: 84

query: Determine its reported response vs control in vivo at 10 mg/kg: Nc1nc2ccc(OC(F)(F)F)cc2s1 [Compound 9, 2-amino-6-trifluoromethoxybenzothiazole]
result: 66

query: Determine its reported response vs control in vivo at 10 mg/kg: CCNc1nc2ccccc2s1 [Compound 21, 2-ethylaminobenzothiazole]
result: 71

query: Determine its reported response vs control in vivo at 10 mg/kg: Nc1nc2c(F)cc(F)cc2s1 [Compound 17, 2-amino-4,6-difluorobenzothiazole]
result: 139

query: Determine its reported response vs control in vivo at 10 mg/kg: Nc1nc2ccc(C(F)(F)F)cc2s1 [Compound 10, 2-amino-6-trifluoromethylbenzothiazole]
result: 53

query: Determine its reported response vs control in vivo at 10 mg/kg: c1ccc(CNc2nc3ccccc3s2)cc1 [Compound 22, N-benzyl-2-benzothiazolamine]
result: 76

query: Determine its reported response vs control in vivo at 10 mg/kg: Nc1nc2c(C(F)(F)F)cccc2s1 [Compound 16, 2-amino-4-trifluoromethylbenzothiazole]
result: 99

* * *

Tested on: MCAO rats
Experiment: Combined Middle Cerebral and Ipsilateral Common Carotid Occlusion in the Rat (MCAO): collateral zone and hemispheric infarct
Assay type: in vivo, Adult male Fisher (F-344) rats
Settings: 10 mg/kg IP, 30 min and 24 h after occlusion, historical controls, read-out: Hemispheric Infarct (% of Control)
Below is a list of entries, each paired with its recorded response vs control in vivo at 10 mg/kg value.
Lab book: enter the figure in %, no units written.

Recorded response vs control in vivo at 10 mg/kg, per entry:
compound: CS(=O)(=O)c1ccc2nc(N)sc2c1
study-system: MCAO rats
unit-tag: %
response vs control in vivo at 10 mg/kg: 83

compound: CCOc1ccc2nc(N)sc2c1
study-system: MCAO rats
unit-tag: %
response vs control in vivo at 10 mg/kg: 115

compound: Nc1nc2ccc(Br)cc2s1
study-system: MCAO rats
unit-tag: %
response vs control in vivo at 10 mg/kg: 88

compound: CSc1ccc2nc(N)sc2c1
study-system: MCAO rats
unit-tag: %
response vs control in vivo at 10 mg/kg: 88

Attention now shifts to the item below.
query: // output response vs control in vivo at 10 mg/kg; input Nc1nc2c(ccc3ccccc32)s1 [Compound 20, 2-amino-naptho[1,2-d]thiazole] ; system MCAO rats
result: 84
